B1: TPR t1 (parent)
chain: GACCAAUCUGCCCUCAGAGCUCGAGAACAUCUUCGGAUGCAGAGGAGGCAGGCUUCGGUGGCGCGAUAGCGCCAACGUCCUCAACCUCCAAUGCAUCCCACCACAUGAUGAUGCCUGAAGAGCCUUGGUUUUUUG

Variants of: B1
Test: polymerase ribozyme fitness, log enrichment relative to wild type (log ratio); higher = more active; in vitro selection for triplet polymerase activity
MEASUREMENT NAME: polymerase ribozyme fitness (log ratio)
Kindly provide the number alone.

Query :: Report polymerase ribozyme fitness (log ratio) for A41C G51U A121G
Result :: -3.12

Query :: # return recorded polymerase ribozyme fitness (log ratio) for entry A43U G60U C64G C73G C85U C98G C115U
Result :: -6.57

***
Query :: Using the record for G44A G120C , state its measured polymerase ribozyme fitness (log ratio).
Result :: 0.014

Query :: Answer with the recorded polymerase ribozyme fitness (log ratio) for the variant listed here: A5U G45U
Result :: -1.13

Query :: Item C3U C34A C76U G120C : provide polymerase ribozyme fitness (log ratio)
Result :: -3.72

Hello, the source for this data is the RNAGym collection of RNA variant scans (doi:10.1073/pnas.2313332121), in case you need it.
